The measured values listed here are drawn from ChEMBL document CHEMBL5506066.

Let's go through some recorded Kd values for von Hippel-Lindau disease tumor suppressor (Homo sapiens) together.
readoutType: Kd (µM)

A: CC(C)(C)[C@@H](C(=O)N1C[C@H](O)C[C@H]1C(=O)N[C@H](Cc1ccc(-c2ccccc2)cc1)C(N)=O)n1cc(C(=O)O)nn1
B: Cc1ncsc1-c1ccc([C@H](C)NC(=O)[C@@H]2C[C@@H](O)CN2C(=O)[C@@H](n2cc(C3CC3)nn2)C(C)(C)C)cc1
C: CC(=O)N[C@H](C(=O)N1C[C@H](O)C[C@H]1C(=O)N[C@H](Cc1ccc(-c2ccccc2Cl)cc1)C(N)=O)C(C)(C)C
Lab note: Kd ranking, ascending, for the listed compounds. # answer = labels listed in requested order B, C, A

* * *

pKd: −log10 of the molar value.
Let's go through some recorded pKd values for von Hippel-Lindau disease tumor suppressor (Homo sapiens, UniProt P40337) together.

* NC(=O)[C@@H](Cc1ccc(-c2ccccc2)cc1)NC(=O)[C@@H]1C[C@@H](O)CN1C(=O)Cc1ccon1 | < 4.24
* Cc1cc(CC(=O)N2C[C@H](O)C[C@H]2C(=O)N[C@H](Cc2ccc(-c3ccccc3)cc2)C(N)=O)on1 | 4.33
* CC(=O)N[C@H](C(=O)N1C[C@H](O)C[C@H]1C(=O)N[C@H](Cc1ccc(-c2ccccc2)cc1)C(N)=O)C1CCN(C(C)=O)CC1 | < 4.24

Please turn your attention to the following entry.
Find the measured pKd of CC(=O)NCC(=O)N1C[C@H](O)C[C@H]1C(=O)N[C@H](Cc1ccc(-c2ccccc2)cc1)C(N)=O with von Hippel-Lindau disease tumor suppressor (Homo sapiens, UniProt P40337) as test system. < 4.24

* * *

# targetDesc: von Hippel-Lindau disease tumor suppressor (Homo sapiens, UniProt P40337)
# Sequence (P40337 whole entry): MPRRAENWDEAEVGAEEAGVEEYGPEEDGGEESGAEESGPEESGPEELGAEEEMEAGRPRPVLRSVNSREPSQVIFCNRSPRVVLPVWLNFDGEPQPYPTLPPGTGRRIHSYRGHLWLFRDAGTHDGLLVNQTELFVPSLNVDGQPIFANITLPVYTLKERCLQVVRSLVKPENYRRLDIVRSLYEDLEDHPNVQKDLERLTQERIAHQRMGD
# assayRemarks: biochemical
# Description: Binding affinity to VHL (unknown origin)-NanoLuc fusion protein expressed in HEK293 cells assessed as apparent dissociation constant incubated for 30 mins in presence of digitonin by NanoBRET assay
pKd: −log10 of the molar value.
readoutType: pKd

• CC(=O)N[C@H](C(=O)N1C[C@H](O)C[C@H]1C(=O)N[C@H](Cc1ccc(-c2ccccc2)cc1)C(N)=O)C(c1ccccc1)c1ccccc1 = 4.33
• CC(=O)N[C@H](C(=O)N1C[C@H](O)C[C@H]1C(=O)N[C@H](Cc1ccc(-c2cccc(Cl)n2)cc1)C(N)=O)C(C)(C)C = 5.38

1: CC(=O)N[C@H](C(=O)N1C[C@H](O)C[C@H]1C(=O)N[C@@H](C)c1ccc(-c2scnc2C)cc1)C(C)(C)C
2: CC(=O)N[C@@H](CC1CC1)C(=O)N1C[C@H](O)C[C@H]1C(=O)N[C@H](Cc1ccc(-c2ccccc2)cc1)C(N)=O
3: CC(C)(C)[C@@H](C(=O)N1C[C@H](O)C[C@H]1C(=O)N[C@H](Cc1ccc(-c2ccccc2)cc1)C(N)=O)n1cc(C(=O)O)nn1
Rank the items in ascending order with respect to pKd. # answer = labels listed in requested order 2, 3, 1

A: NC(=O)[C@@H](Cc1ccc(-c2ccccc2)cc1)NC(=O)[C@@H]1C[C@@H](O)CN1C(=O)[C@@H](n1cc(C2CC2)nn1)C12CC3CC(CC(C3)C1)C2
B: CC(C)(C)[C@H](N=[N+]=[N-])C(=O)N1C[C@H](O)C[C@H]1C(=O)N[C@H](Cc1ccc(-c2ccccc2)cc1)C(N)=O
C: CC(=O)N[C@H](C(=O)N1C[C@H](O)C[C@H]1C(=O)N[C@H](Cc1ccc(-c2ccccc2)cc1)C(N)=O)C1CCOCC1
D: CC(=O)N[C@H](C(=O)N1C[C@H](O)C[C@H]1C(=O)N[C@H](Cc1ccc(-c2ccccc2)cc1)C(N)=O)C1CCNCC1
Rank the items in ascending order with respect to pKd. # answer = labels listed in requested order B, D, C, A
